MEASUREMENT_NAME: melting point (°C)

{"CHEMICAL_STRUCTURE": "CCn1c(SCC(=O)c2ccccc2)nnc1-c1ccc(-c2nc3ccccc3[nH]2)cc1", "melting point [°C]": 220.9}
{"CHEMICAL_STRUCTURE": "CCn1c(SCC(=O)c2ccc(Cl)cc2Cl)nnc1-c1ccc(-c2nc3ccc(F)cc3[nH]2)cc1", "melting point [°C]": 223.3}
{"CHEMICAL_STRUCTURE": "Cn1c(SCC(=O)c2ccc(F)cc2)nnc1-c1ccc(-c2nc3ccccc3[nH]2)cc1", "melting point [°C]": 259.8}
{"CHEMICAL_STRUCTURE": "CCn1c(SCC(=O)c2ccc(Cl)cc2)nnc1-c1ccc(-c2nc3ccc(F)cc3[nH]2)cc1", "melting point [°C]": 241.4}

----------
MEASUREMENT_NAME: melting point (°C)

{"COMPOUND": "Cn1c(SCC(=O)c2ccc(F)cc2F)nnc1-c1ccc(-c2nc3ccc(Cl)cc3[nH]2)cc1 [Compound 5o]", "melting point [°C]": 264.9}
{"COMPOUND": "CCn1c(SCC(=O)c2ccccc2)nnc1-c1ccc(-c2nc3ccc(Cl)cc3[nH]2)cc1 [Compound 5p]", "melting point [°C]": 248.5}
{"COMPOUND": "Cn1c(SCC(=O)c2ccc(F)cc2F)nnc1-c1ccc(-c2nc3ccccc3[nH]2)cc1 [Compound 5e]", "melting point [°C]": 256.2}
{"COMPOUND": "CCn1c(SCC(=O)c2ccc(F)cc2)nnc1-c1ccc(-c2nc3ccccc3[nH]2)cc1 [Compound 5h]", "melting point [°C]": 231.3}
{"COMPOUND": "Cn1c(SCC(=O)c2ccccc2)nnc1-c1ccc(-c2nc3ccc(F)cc3[nH]2)cc1 [Compound 5u]", "melting point [°C]": 277.1}
{"COMPOUND": "CCn1c(SCC(=O)c2ccc(Cl)cc2Cl)nnc1-c1ccc(-c2nc3ccccc3[nH]2)cc1 [Compound 5i]", "melting point [°C]": 221.7}
{"COMPOUND": "CCn1c(SCC(=O)c2ccc(F)cc2)nnc1-c1ccc(-c2nc3ccc(F)cc3[nH]2)cc1 [Compound 5ab]", "melting point [°C]": 251}
{"COMPOUND": "Cn1c(SCC(=O)c2ccc(Cl)cc2Cl)nnc1-c1ccc(-c2nc3ccccc3[nH]2)cc1 [Compound 5d]", "melting point [°C]": 234.7}
{"COMPOUND": "CCn1c(SCC(=O)c2ccc(F)cc2)nnc1-c1ccc(-c2nc3ccc(Cl)cc3[nH]2)cc1 [Compound 5r]", "melting point [°C]": 265.5}
{"COMPOUND": "CCn1c(SCC(=O)c2ccccc2)nnc1-c1ccc(-c2nc3ccc(F)cc3[nH]2)cc1 [Compound 5z]", "melting point [°C]": 253.6}
{"COMPOUND": "Cn1c(SCC(=O)c2ccc(Cl)cc2)nnc1-c1ccc(-c2nc3ccccc3[nH]2)cc1 [Compound 5b]", "melting point [°C]": 280.6}
{"COMPOUND": "CCn1c(SCC(=O)c2ccc(Cl)cc2)nnc1-c1ccc(-c2nc3ccccc3[nH]2)cc1 [Compound 5g]", "melting point [°C]": 242.6}
{"COMPOUND": "Cn1c(SCC(=O)c2ccc(Cl)cc2)nnc1-c1ccc(-c2nc3ccc(F)cc3[nH]2)cc1 [Compound 5v]", "melting point [°C]": 252.9}
{"COMPOUND": "Cn1c(SCC(=O)c2ccccc2)nnc1-c1ccc(-c2nc3ccc(Cl)cc3[nH]2)cc1 [Compound 5k]", "melting point [°C]": 260}
{"COMPOUND": "Cn1c(SCC(=O)c2ccc(F)cc2F)nnc1-c1ccc(-c2nc3ccc(F)cc3[nH]2)cc1 [Compound 5y]", "melting point [°C]": 263.2}
{"COMPOUND": "CCn1c(SCC(=O)c2ccc(Cl)cc2Cl)nnc1-c1ccc(-c2nc3ccc(Cl)cc3[nH]2)cc1 [Compound 5s]", "melting point [°C]": 192}
{"COMPOUND": "Cn1c(SCC(=O)c2ccc(Cl)cc2)nnc1-c1ccc(-c2nc3ccc(Cl)cc3[nH]2)cc1 [Compound 5l]", "melting point [°C]": 236.9}
